Target: hFASN enzyme (full length) (Homo sapiens)
Construct: 10 μL hFASN enzyme (full length, 300 ng, purified in house); made in house
Sequence (P49327 whole entry): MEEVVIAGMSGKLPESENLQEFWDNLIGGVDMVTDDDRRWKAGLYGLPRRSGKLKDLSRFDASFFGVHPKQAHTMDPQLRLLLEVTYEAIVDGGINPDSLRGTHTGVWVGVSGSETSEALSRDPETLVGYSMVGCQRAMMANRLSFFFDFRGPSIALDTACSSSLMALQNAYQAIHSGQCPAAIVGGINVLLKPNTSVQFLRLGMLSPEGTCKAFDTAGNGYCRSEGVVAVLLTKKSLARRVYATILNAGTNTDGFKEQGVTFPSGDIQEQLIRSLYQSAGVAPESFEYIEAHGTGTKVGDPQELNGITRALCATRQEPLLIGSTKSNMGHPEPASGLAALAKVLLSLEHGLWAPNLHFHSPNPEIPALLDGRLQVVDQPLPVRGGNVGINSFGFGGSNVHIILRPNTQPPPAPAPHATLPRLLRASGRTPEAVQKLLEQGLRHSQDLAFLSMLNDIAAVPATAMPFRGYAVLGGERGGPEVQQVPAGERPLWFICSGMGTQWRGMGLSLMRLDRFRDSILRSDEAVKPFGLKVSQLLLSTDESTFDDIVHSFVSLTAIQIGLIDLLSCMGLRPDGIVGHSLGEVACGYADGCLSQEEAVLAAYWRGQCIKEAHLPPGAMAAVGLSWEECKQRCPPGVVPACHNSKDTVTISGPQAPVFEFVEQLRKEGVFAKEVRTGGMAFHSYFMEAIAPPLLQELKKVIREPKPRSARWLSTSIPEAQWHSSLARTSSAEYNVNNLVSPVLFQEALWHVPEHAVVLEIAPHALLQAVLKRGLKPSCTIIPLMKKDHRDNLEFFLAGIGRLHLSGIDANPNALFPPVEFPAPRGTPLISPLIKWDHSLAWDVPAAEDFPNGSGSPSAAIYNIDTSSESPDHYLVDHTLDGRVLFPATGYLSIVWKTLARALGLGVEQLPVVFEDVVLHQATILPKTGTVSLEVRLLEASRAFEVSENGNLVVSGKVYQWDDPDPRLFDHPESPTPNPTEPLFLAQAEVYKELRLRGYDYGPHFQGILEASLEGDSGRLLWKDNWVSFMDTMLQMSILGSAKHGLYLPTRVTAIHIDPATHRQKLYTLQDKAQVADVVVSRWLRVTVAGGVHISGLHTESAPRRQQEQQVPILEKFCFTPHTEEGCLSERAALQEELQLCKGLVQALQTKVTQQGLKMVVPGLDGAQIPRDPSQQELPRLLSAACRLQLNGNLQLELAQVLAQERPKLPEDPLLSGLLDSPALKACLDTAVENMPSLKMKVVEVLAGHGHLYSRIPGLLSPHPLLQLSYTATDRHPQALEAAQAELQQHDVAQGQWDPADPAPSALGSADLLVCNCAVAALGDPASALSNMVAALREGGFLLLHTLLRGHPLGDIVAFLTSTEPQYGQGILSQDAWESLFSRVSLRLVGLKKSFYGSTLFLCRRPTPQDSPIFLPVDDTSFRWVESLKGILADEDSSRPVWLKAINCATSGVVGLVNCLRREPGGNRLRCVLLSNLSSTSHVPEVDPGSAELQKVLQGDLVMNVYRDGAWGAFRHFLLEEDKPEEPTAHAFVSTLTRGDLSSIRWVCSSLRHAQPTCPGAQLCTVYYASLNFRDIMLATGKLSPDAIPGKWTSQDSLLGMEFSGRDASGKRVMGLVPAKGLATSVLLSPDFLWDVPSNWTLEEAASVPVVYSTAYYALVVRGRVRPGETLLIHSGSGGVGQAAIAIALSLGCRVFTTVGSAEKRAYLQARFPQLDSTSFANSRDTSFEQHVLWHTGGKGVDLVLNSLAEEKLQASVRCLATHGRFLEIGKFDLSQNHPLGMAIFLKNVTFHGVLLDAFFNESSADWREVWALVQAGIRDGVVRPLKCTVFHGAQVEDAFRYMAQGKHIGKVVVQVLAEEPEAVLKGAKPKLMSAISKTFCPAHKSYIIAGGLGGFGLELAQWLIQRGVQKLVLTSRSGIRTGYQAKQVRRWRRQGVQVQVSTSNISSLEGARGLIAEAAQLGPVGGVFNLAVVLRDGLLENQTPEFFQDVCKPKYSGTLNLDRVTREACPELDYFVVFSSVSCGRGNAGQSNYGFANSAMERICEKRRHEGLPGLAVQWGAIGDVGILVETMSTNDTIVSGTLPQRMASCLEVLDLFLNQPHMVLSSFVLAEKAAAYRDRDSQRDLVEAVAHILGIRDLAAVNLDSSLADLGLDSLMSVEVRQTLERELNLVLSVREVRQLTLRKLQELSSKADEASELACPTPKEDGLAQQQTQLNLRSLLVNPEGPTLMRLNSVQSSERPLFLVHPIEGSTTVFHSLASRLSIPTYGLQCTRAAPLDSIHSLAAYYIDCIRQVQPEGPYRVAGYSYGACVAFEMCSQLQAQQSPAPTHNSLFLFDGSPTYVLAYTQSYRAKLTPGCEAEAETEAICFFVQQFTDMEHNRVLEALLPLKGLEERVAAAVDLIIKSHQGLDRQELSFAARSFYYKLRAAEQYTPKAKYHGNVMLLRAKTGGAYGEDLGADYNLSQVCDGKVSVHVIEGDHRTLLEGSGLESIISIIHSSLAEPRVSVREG
Assay: Fatty Acid Synthase (FASN) inhibition scintillation proximity assay
Type: biochemical
Conditions: read-out: Human FASN % inhibition @ 10 μM, 10 μM test compound
inhibition at 10 µM by entry:
READOUT NAME: inhibition at 10 µM (%)

STRUCTURE | RECORDED RESULT
O=C(C1CC1)N1CC[C@@H](CN2C(=O)C3(CC3)N=C2c2ccc(-c3cc4cc(Br)ccc4cn3)cc2)C1 | 92
Cc1nc2cc(-c3ccc(C4=NC5(CC5)C(=O)N4CC4CN(C(=O)C5CC5)C4)c(F)c3)ccc2s1 | 99
Cn1cc(-c2ccc(-c3ccc(C4=NC5(CCOCC5)C(=O)N4CC4CN(S(C)(=O)=O)C4)cc3)cc2)cn1 | -7
O=C(O)c1ccc2ccc(-c3ccc(C4=NC5(CC5)C(=O)N4CC4CN(C(=O)C5CC5)C4)cc3)cc2n1 | 74
CC(C)C(=O)N1CCC2(CC1)N=C(c1ccc(-c3ccc4cnccc4c3)cc1)N(C[C@@H]1CCN(C(=O)C3CC3)C1)C2=O | 119
COc1ccc2cc(-c3ccc(C4=NC5(CC5)C(=O)N4CC4CN(C(=O)C5(C)CC5)C4)c(C)c3)ccc2c1 | 100
Cc1cc2cc(-c3ccc(C4=NC5(CCNCC5)C(=O)N4C[C@@H]4CCN(C(=O)C5CC5)C4)cc3)ccc2o1 | 96.5
